Here the recorded inhibition at 1 µM is given for each entry.
tgt: human ANO6 (Homo sapiens, UniProt Q4KMQ2)
Construct: expressed in transfected cells
Sequence (Q4KMQ2 1-931 isoform Q4KMQ2-2): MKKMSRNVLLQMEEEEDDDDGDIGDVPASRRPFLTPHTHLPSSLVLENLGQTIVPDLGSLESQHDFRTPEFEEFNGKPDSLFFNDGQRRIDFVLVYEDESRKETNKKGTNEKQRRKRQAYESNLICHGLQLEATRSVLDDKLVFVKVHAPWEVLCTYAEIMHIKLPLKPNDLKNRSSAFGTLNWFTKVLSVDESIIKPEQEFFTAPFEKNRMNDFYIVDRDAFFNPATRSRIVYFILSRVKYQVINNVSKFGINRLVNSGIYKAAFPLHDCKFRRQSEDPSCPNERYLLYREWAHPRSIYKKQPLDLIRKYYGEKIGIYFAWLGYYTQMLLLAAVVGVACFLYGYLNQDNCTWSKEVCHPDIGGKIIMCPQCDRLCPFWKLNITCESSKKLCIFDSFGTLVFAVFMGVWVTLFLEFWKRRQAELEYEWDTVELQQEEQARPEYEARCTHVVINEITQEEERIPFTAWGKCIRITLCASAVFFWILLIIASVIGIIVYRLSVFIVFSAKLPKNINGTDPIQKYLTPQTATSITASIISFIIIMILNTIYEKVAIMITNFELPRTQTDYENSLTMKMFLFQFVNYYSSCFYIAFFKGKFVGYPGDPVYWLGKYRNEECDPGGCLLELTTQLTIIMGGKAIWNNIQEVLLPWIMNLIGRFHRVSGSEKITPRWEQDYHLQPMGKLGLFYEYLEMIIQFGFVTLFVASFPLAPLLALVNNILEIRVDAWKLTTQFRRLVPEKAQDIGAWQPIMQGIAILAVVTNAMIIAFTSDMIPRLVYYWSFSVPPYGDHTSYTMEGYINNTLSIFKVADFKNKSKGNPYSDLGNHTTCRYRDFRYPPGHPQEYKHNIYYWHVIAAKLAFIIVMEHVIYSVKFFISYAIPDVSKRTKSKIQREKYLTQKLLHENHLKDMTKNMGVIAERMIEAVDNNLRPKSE
measurement.protocol: LACT C2 assay (phosphatidylserine scramblase function assay)
Assay type: cell-based
particulars: test compound 1 μM, FRT cells expressing human ANO6, 10 μM ionomycin, read-out: Inhibition Level 1 μM
experimental.readout: inhibition at 1 µM

>>> result("O=C(Nc1cccc(F)c1)c1cccc(Nc2ccc(-c3cccnc3)cc2)c1 [Compound 160]")
"≥ 60%"
>>> result("O=C(N[C@@H]1C[C@H]1c1ccc(Cl)c(F)c1)c1cccc(Nc2ncc(-c3cccc(F)c3)cn2)c1 [Compound 131]")
"≥ 60%"
>>> result("O=C(NCC1CCC1)c1cccc(Nc2ccc(-c3ccccc3)nn2)c1 [Compound 30]")
"30 to 60%"
>>> result("Cc1ccc(CNC(=O)c2cccc(Nc3ccc(-c4cscc4C)nn3)c2)o1 [Compound 74]")
"≥ 60%"
>>> result("CC(C)(NC(=O)c1cccc(Nc2ccc(-c3ccccc3)nn2)c1)c1ccc(F)cc1 [Compound 213]")
"30 to 60%"
>>> result("O=C(NCc1ccc(F)cc1)c1cccc(Nc2ncc(-c3cccc(F)c3)cn2)c1 [Compound A96]")
"30 to 60%"
>>> result("O=C(Nc1cccc(F)c1)c1cccc(Nc2ccc(-c3ccccn3)cc2)c1 [Compound 154]")
"≥ 60%"
>>> result("O=C(NC1(c2ccccc2)CC1)c1cccc(Nc2ncc(-c3cccc(F)c3)cn2)c1 [Compound 133]")
"30 to 60%"
>>> result("Cc1ccc(CNC(=O)c2cccc(Nc3ccc(-c4ccccc4)nc3)c2)o1 [Compound 6]")
"30 to 60%"
>>> result("O=C(NC1(CO)CC1)c1cccc(Nc2ccc(-c3ccccc3)nn2)c1 [Compound 228]")
"< 30%"
>>> result("O=C(NCCc1cccc(F)c1)c1cccc(Nc2ncc(-c3ccccc3)cn2)c1 [Compound 90]")
"30 to 60%"
>>> result("O=C(NCC1CCCCC1)c1cccc(Nc2ccc(-c3ccccc3)nn2)c1 [Compound 31]")
"≥ 60%"
>>> result("CSc1ccc(CNC(=O)c2cccc(Nc3ccc(-c4ccc(F)cc4)nn3)c2)cc1 [Compound A27]")
"< 30%"
>>> result("CCCCNC(=O)c1cccc(Nc2ccc(-c3ccc(F)cc3)nn2)c1 [Compound A10]")
"< 30%"
>>> result("Nc1ccc(NC(=O)c2cccc(Nc3ccc(-c4cccc(F)c4)cn3)c2)cc1 [Compound 146]")
"30 to 60%"
>>> result("O=C(NCCC1=CCCCC1)c1cccc(Nc2ccc(-c3ccccc3)nn2)c1 [Compound A40]")
"≥ 60%"
>>> result("Cc1ccc([C@@H]2C[C@H]2NC(=O)c2cccc(Nc3ccc(-c4ccccc4)nn3)c2)cc1 [Compound 235]")
"≥ 60%"
